Reference source for all entries: patent US20210107874A1

assay_remarks: Stability tests of solutions of compound 4 with equimolar acids in water
Format: physicochemical
test_parameters: water with equimolar acid, water, thermodynamic from solid, equimolar saccharin in water
property_name: solubility

Look up solubility for this compound: `CCOc1cc(NCCNC(=O)/C=C/C(F)(F)F)ccn1` < 50 mg/mL

* * *

assay_remarks: PK studies of formulations, plasma by HPLC-MS/MS
Format: in vivo
test_parameters: bovine, plasma, sc, 1.25 mg/kg, Form A50 (NMP, propylene glycol, water), Cattle, 1.25 mg/kg, read-out: Tmax
property_name: Tmax (min)
Express your answer in min, writing the number without its unit.

Look up Tmax for this compound: `CCOc1cc(NCCNC(=O)/C=C/C(F)(F)F)ccn1` 26.4

* * *

assay_remarks: Quantitative determination of solubility of compound 5 (UPLC)
Assay type: physicochemical
test_parameters: aqueous acid solution (350 mM ethanesulfonic acid in water), 25 °C, aqueous buffer, thermodynamic from solid, Ethanesulfonic acid 350 mM in water, read-out: Solubility T = 3 Days Average
property_name: solubility at 3 days (mg/mL)
Express your answer in mg/mL, writing the number without its unit.

Look up solubility at 3 days for this molecule: `COc1cc(NCCNC(=O)/C=C/C(C)(F)F)ccn1` 165

* * *

assay_remarks: PK studies of formulations, plasma by HPLC-MS/MS
Format: in vivo
test_parameters: bovine, plasma; FormJ62.5 (DMSO, 2-pyrrolidone, ethyl lactate), SC, Cattle, 1.25 mg/kg; read-out: Tmax
property_name: Tmax (h)
Express your answer in h, writing the number without its unit.

Look up Tmax for this compound: CCOc1cc(NCCNC(=O)/C=C/C(F)(F)F)ccn1 [Compound 4] 1.83

* * *

assay_remarks: Quantitative determination of solubility of compound 5 (UPLC)
Type: physicochemical
test_parameters: aqueous acid solution (350 mM fumaric acid in water), 25 °C, aqueous buffer, thermodynamic from solid, Fumaric acid 350 mM in water, read-out: Solubility T = 1 Day
Protocol: Compound 5 (120 mg) was weighed into shell vials and combined with acid (600 μl of a 350 mM solution of the respective acid in water).
property_name: solubility at 1 day

Look up solubility at 1 day for this molecule: `COc1cc(NCCNC(=O)/C=C/C(C)(F)F)ccn1` 152 mg/mL

* * *

assay_remarks: Stability tests of solutions of compound 4 with equimolar acids in water
Assay type: physicochemical
test_parameters: water with equimolar acid, water, thermodynamic from solid, equimolar benzoic acid in water
property_name: solubility

Look up solubility for this molecule: `CCOc1cc(NCCNC(=O)/C=C/C(F)(F)F)ccn1` < 50 mg/mL

* * *

assay_remarks: Solubility of synthesized tartrate salt and free base of compound 4
Type: physicochemical
test_parameters: synthesized tartrate salt; read-out: solubility (can be dissolved)
Where a name gives a salt, the structure may show the parent alone.
property_name: solubility

Look up solubility for this compound: CCOc1cc(NCCNC(=O)/C=C/C(F)(F)F)ccn1 [tartrate salt of compound 4] 145 mg/mL

* * *

assay_remarks: PK studies of formulations, plasma by HPLC-MS/MS
Assay type: in vivo
test_parameters: bovine, plasma, sc, 1.25 mg/kg, FormL50 (DMA, propylene glycol, water), Cattle, 1.25 mg/kg, read-out: Tmax
property_name: Tmax (min)
Express your answer in min, writing the number without its unit.

Look up Tmax for this molecule: `CCOc1cc(NCCNC(=O)/C=C/C(F)(F)F)ccn1` 40.2

* * *

assay_remarks: PK studies of formulations, plasma by HPLC-MS/MS
Format: in vivo
test_parameters: bovine, plasma, sc, 1.25 mg/kg, FormL50 (DMA, propylene glycol, water), Cattle, 1.25 mg/kg, read-out: Cmax
property_name: Cmax
Kindly write the number and append the unit.

Look up Cmax for this compound: `CCOc1cc(NCCNC(=O)/C=C/C(F)(F)F)ccn1` 28.1 ng/mL
